measurement_target: Dihydroorotate dehydrogenase (quinone), mitochondrial (Plasmodium falciparum (isolate 3D7))
protocol_notes: inhibition of P. falciparum DHODH – biochemical, C-terminal His tag, absorbance 600 nm, primary screen (AID 1175);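 further: recombinant parasite enzyme with a five histidine tag at its C terminus; test concentration not given here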
test_settings: PfDHODH enzyme, DCIP absorbance 600 nm; higher = more signal, called active from +8 up or from −8 down
Note to self: values exactly at -0.5 are TRUE. So composite z-score at or above -0.5 is TRUE, below is FALSE.

Tell me whether composite z-score is at least -0.5 here: C=CC[C@H](OC(=O)Nc1ccc(SC)cc1)c1ccc(O)c2ccccc12
FALSE

Tell me whether composite z-score is at least -0.5 here: CC(C)(C)OC(=O)COc1cccc(C(=O)CCN2CCOCC2)c1
FALSE

Tell me whether composite z-score is at least -0.5 here: C=CCN1C(=O)[C@]2(CCC(=O)OC(C)(C)C)N=C(c3ccc(OCCCO)cc3)O[C@@H]2c2ccccc21
TRUE

Tell me whether composite z-score is at least -0.5 here: CCCCCCCCCC(O)C1C=CC2C(=O)N(c3ccccc3)C(=O)C2N1Nc1cc(OC)c(OC)c(OC)c1 (stereo not given)
TRUE

Tell me whether composite z-score is at least -0.5 here: COc1ccc(CCNC(=O)[C@@]2(Cc3ccccc3I)c3ccccc3C(=O)N(C3CCCCC3)[C@H]2c2ccc(CO)cc2)cc1
TRUE

----------
protocol_notes: probe aInhba binding on compound microarray – biochemical, small-molecule microarray, 635/667 nm fluorescence, primary screen (AID 1148);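 further: score merges 667nm spot fluorescence with signal-to-noise for antibody binding to printed compounds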
test_settings: higher = more signal
Note to self: values exactly at -0.07 are Satisfied. So composite z-score at or above -0.07 is Satisfied, below is Not satisfied.

Tell me whether composite z-score is at least -0.07 here: [N-]=[N+]=Nc1ccccc1[C@@H]1OC(c2ccc(OCCCO)cc2)=N[C@]1(Cc1ccccc1)C(=O)N1CCCCC1
Satisfied

Tell me whether composite z-score is at least -0.07 here: COCCOC(=O)N1C(=O)[C@@]2(c3cc(C#CCC(C(=O)OC)C(=O)OC)ccc31)[C@H](c1ccc(OCCO)cc1)N1[C@H](c3ccccc3)[C@H](c3ccccc3)OC(=O)[C@H]1[C@@H]2C(=O)N1CCc2cc(OC)c(OC)cc2C1
Satisfied

Tell me whether composite z-score is at least -0.07 here: CN(C)CCCCCCNC(=O)[C@@H]1C[C@@H]2C(=O)N3CCC[C@H]3C(=O)N2[C@@H]1c1cccc(OCCO)c1
Satisfied

Tell me whether composite z-score is at least -0.07 here: COc1cccc(C)c1NC(=O)O[C@H]1[C@H](OC(=O)Nc2ccccc2-c2ccccc2)[C@H](OC(=O)Nc2ccccc2-c2ccccc2)[C@@H](OC)O[C@@H]1CO
Satisfied

Tell me whether composite z-score is at least -0.07 here: CC(C)N1CC=CC23O[C@@H]4C=CCCOC(=O)C4[C@H]2C(=O)N(CCCO)[C@@H]3C1=O (some centres undefined)
Not satisfied

Tell me whether composite z-score is at least -0.07 here: O=C(NCc1ccc(F)cc1)[C@H]1C[C@H]2C(=O)NCC(=O)N2[C@H]1c1ccc(O)cc1
Satisfied

Tell me whether composite z-score is at least -0.07 here: CCCC=C(CCC)[C@@H](NC(=O)c1cccs1)c1ccc(C(=O)OC)cc1
Satisfied

Tell me whether composite z-score is at least -0.07 here: CCOC(=O)C1=C[C@@H](c2ccccc2)N(S(=O)(=O)c2ccc(C)cc2)[C@H]1c1ccc(OC)cc1
Satisfied

Tell me whether composite z-score is at least -0.07 here: CCOC(=O)C[C@H]1[C@H](OC(=O)c2ccc(C(=O)c3ccccc3)cc2)[C@@H](NC(=O)CC(C)C)c2cc(OCCCO)ccc2N1C(=O)c1ccccc1
Satisfied

Tell me whether composite z-score is at least -0.07 here: CCCCC(CC)C(O)C1C=CC2C(=O)N(c3ccccc3)C(=O)C2N1Nc1ccccc1F (centres undefined)
Not satisfied

Tell me whether composite z-score is at least -0.07 here: CO[C@H]1O[C@H](CO)[C@@H](OC(=O)CCc2ccccc2)[C@@H]2OC(=O)[C@@H](Cc3ccccc3)C/C=C/C[C@H](Cc3ccccc3)C(=O)O[C@@H]12
Not satisfied

Tell me whether composite z-score is at least -0.07 here: COC(=O)[C@@H]1N=C(c2ccc(OCCCO)cc2)O[C@@H]1c1ccccc1
Not satisfied

Tell me whether composite z-score is at least -0.07 here: CC#CCO[Si](C#Cc1ccccc1)(C(C)C)C(C)C
Not satisfied

Tell me whether composite z-score is at least -0.07 here: COCCOC(=O)N1C(=O)[C@@]2(c3cc(C#CCNC(N)=O)ccc31)[C@H](C(N)=O)[C@H]1C(=O)O[C@H](c3ccccc3)[C@H](c3ccccc3)N1[C@@H]2c1ccccc1OCCO
Satisfied

Tell me whether composite z-score is at least -0.07 here: CCCC=C(CCC)[C@@H](NP(=O)(c1ccccc1)c1ccccc1)c1ccc(-c2ccccc2)cc1
Satisfied

Tell me whether composite z-score is at least -0.07 here: COc1ccc([Si](C)(C)[C@@H]2[C@@H](CC(=O)N(CCO)Cc3ccccc3)O[C@]3(C(=O)N(Cc4cccc(N5CCCCC5=O)c4)c4ccccc43)[C@H]2C)cc1
Satisfied

Tell me whether composite z-score is at least -0.07 here: CCC#CCN(Cc1ccccc1Br)[C@H](/C=C/C1CC1)[C@@H](O)Cc1ccccc1
Not satisfied

Tell me whether composite z-score is at least -0.07 here: CCCN1C(=O)[C@]2(Cc3ccccc31)N=C(c1ccc(OCCCO)cc1)O[C@@H]2c1ccccc1
Satisfied

Tell me whether composite z-score is at least -0.07 here: CC1=C2[C@@H](CCc3ccccc3)OB(O)C[C@@H]2[C@@H]2C(=O)N(Cc3ccccc3)C(=O)[C@@H]2C1
Not satisfied

Tell me whether composite z-score is at least -0.07 here: [N-]=[N+]=Nc1ccccc1[C@H]1OC(c2ccc(OCCCO)cc2)=N[C@@]1(Cc1ccccc1)C(=O)NCCN1CCOCC1
Satisfied

Tell me whether composite z-score is at least -0.07 here: Cc1ccc(S[C@]2(C(=O)NCCN3CCOCC3)CC(=O)N(Cc3ccccc3Cl)[C@@H]2c2ccc(CO)cc2I)cc1
Satisfied

Tell me whether composite z-score is at least -0.07 here: C=CCC(OC(C)=O)[C@@H]1[C@@H](N(Cc2cccc3ccccc23)C(=O)Cc2ccc(OC)cc2)c2cc(OCCCO)ccc2N1C(=O)c1ccc(-c2ccccc2)cc1 (some centres undefined)
Not satisfied

Tell me whether composite z-score is at least -0.07 here: CC(C)(C)OC(=O)CC[C@@]1(C(=O)NCC(O)CO)N=C(c2ccc(OCCCO)cc2)O[C@@H]1c1ccccc1CN=[N+]=[N-] (some centres undefined)
Satisfied

Tell me whether composite z-score is at least -0.07 here: COCCOC(=O)N1C(=O)[C@@]2(c3cc(C#CC4=CCCCC4)ccc31)[C@H](c1ccccc1OCCO)N1[C@H](c3ccccc3)[C@H](c3ccccc3)OC(=O)[C@H]1[C@@H]2C(=O)NC[C@H](O)c1ccccc1
Satisfied

Tell me whether composite z-score is at least -0.07 here: Cc1ccc(NN2C(C(O)c3c(F)cccc3Cl)C=CC3C(=O)N(C4CCCCC4)C(=O)C32)cc1 (centres undefined)
Satisfied

Tell me whether composite z-score is at least -0.07 here: CC[C@@H]1C=C(C(=O)O)[C@H](c2ccc(C#N)cc2)N1S(=O)(=O)c1ccc(C)cc1
Not satisfied

Tell me whether composite z-score is at least -0.07 here: CN(C)C(=O)[C@@]1(Cc2ccccc2CN=[N+]=[N-])N=C(c2ccc(OCCCO)cc2)O[C@H]1c1ccccc1N=[N+]=[N-]
Satisfied

Tell me whether composite z-score is at least -0.07 here: C=CCC(OC(C)=O)[C@@H]1[C@@H](N(Cc2cccc3ccccc23)C(=O)Cc2ccc(F)cc2)c2cc(OCCCO)ccc2N1C(=O)c1ccc2ccccc2c1 (some centres undefined)
Not satisfied
